test: qHTS for Inhibitors of the Functional Ribonucleoprotein Complex (vRNP) of Lassa (LASV) Arenavirus: Viability assay - alamar blue signal for LASV Primary Screen (AID 1347083); conditions: cell viability, alamar blue fluorescence (LASV minigenome counter-screen); series mostly up to 57.5 µM; further: nearly all actives have a fitted effect of over 80% in size
Records with an inconclusive call do not appear. Activity calls are given as the source filed them. The call rests on the fitted dose curve; tested in HEK293 reporter line.
Give your call using only these classes: active, inactive

Consider the worked cases shown below.
COc1cc(OC)c2c(=O)cc(-c3ccccc3)oc2c1 | inactive
NC(=O)c1noc([C@H](CCCC2CCCCC2)CC(=O)NO)n1 | inactive

Next up:
What outcome does the record of this test show for CCCCCCCCC=O ?
inactive

----------
target: Glucocorticoid receptor (Homo sapiens) (UniProt P04150); assay: GR-GFP Redistribution (AID 450); conditions: U2OS GR-GFP nuclear translocation, laser cytometry, 2 h; further: potency means the concentration at half of the fitted maximal effect
Sequence (P04150 whole entry, looked up): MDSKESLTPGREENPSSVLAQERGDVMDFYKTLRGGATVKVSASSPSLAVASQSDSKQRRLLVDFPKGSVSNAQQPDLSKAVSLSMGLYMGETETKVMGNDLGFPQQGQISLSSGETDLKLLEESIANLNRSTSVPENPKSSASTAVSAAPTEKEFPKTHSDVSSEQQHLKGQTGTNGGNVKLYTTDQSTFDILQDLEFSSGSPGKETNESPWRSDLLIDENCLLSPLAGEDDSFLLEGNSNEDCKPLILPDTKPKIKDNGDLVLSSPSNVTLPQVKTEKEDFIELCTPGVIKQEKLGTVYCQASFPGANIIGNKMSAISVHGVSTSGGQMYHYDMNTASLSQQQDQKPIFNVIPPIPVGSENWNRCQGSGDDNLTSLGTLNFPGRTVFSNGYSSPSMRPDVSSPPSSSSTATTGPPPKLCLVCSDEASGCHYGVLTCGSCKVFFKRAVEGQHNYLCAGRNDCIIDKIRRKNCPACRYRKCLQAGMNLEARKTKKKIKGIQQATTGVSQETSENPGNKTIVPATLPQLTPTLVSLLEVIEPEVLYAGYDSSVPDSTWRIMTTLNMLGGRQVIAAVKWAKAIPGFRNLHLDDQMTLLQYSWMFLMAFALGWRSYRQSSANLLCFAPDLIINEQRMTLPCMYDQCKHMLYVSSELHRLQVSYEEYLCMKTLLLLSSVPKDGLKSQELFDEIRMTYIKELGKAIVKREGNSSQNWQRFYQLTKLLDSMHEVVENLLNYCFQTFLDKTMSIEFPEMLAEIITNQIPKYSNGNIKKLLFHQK
Activity calls are given as the source filed them.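 How the source made its calls: active means compounds whose dose series gives a full or clear partial fitted curve of increased nuclear translocation; inconclusive means weak partial curve or effect only at the top dose; inactive means no dose-dependent translocation response.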
Choose one outcome from this list and give only that: T for active, F for inactive

Use the examples below as a reference point.
C[C@@H](N)Cn1ccc2cc(F)c(Cl)cc21 | F
CC(C)(O)[C@H]1O[C@@H]2CC[C@]3(C)[C@@]4(C)c5[nH]c6ccccc6c5C[C@@H]4CC[C@]3(O)C2=CC1=O | T

Please let me know the test result on file for COc1ccc2[nH]cc(C3=CCNCC3)c2c1 .
F

# fetch the recorded call for CC(C)(O)[C@@H]1[C@H]2OC(=O)[C@@H]1[C@]1(O)C[C@H]3O[C@]34C(=O)O[C@H]2[C@@]14C (tested in a mixture with another compound) here
F

Called result for CCCn1c(C)c(C(=O)c2cccc3ccccc23)c2ccccc21
F

Recorded test outcome, item CN1[C@@H]2CC[C@H]1CC(O[C@@H](c1ccccc1)c1ccc(Cl)cc1)C2 (stereo partly drawn)
F

Per the records of this test, what outcome belongs to NC(=NCCc1ccc(I)cc1)SCCCc1cnc[nH]1 ?
F

Which result was noted for this compound in the test: COc1ccc(-n2nc(C(F)(F)F)cc2-c2ccc(Cl)cc2)cc1
F

Hey, what did the test say about N[C@H](Cc1o[nH]c(=O)c1Cl)C(=O)O ?
F

How was O=C(CCCN1CCC2(CC1)C(=O)N(Cc1cccc(F)c1)CN2c1ccccc1)c1ccc(F)cc1 classified in this test?
F

----------
molecular target: Nucleoprotein (Lymphocytic choriomeningitis virus (strain Armstrong)) (UniProt P09992); assay: qHTS for Inhibitors of the Functional Ribonucleoprotein Complex (vRNP) of Lymphocytic Choriomeningitis Arenaviruses (LCMV): LCMV Primary Screen - GLuc reporter signal (AID 1347086); settings: LCMV minigenome vRNP cell assay, Gaussia luciferase reporter; series mostly up to 57.5 µM; further: nearly all actives have a fitted effect of over 70% in size
Sequence (P09992 whole entry, looked up): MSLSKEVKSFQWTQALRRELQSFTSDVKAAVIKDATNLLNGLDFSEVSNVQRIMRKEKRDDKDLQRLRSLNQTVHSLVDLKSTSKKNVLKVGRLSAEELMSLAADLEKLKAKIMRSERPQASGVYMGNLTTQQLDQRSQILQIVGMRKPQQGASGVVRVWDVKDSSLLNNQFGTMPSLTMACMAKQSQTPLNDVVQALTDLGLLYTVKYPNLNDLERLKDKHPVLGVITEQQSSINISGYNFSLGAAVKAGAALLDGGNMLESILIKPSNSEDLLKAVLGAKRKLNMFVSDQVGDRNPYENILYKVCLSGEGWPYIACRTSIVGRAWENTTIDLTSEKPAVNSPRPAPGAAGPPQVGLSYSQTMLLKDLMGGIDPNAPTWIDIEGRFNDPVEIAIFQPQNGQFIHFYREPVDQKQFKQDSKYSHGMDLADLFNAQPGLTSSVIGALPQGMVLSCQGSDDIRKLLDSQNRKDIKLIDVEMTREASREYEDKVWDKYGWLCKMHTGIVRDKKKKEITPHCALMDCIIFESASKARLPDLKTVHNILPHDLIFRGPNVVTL
Inconclusive results are not listed. Active and inactive are the calls of the source. Calls follow the shape of the full dose curve.
Can you answer with just one of these options? active, inactive

COc1cc(-c2ccccc2)nc2ccccc12 | inactive
CC[C@H]1NC(=O)[C@@H](NC(=O)c2ncccc2O)[C@@H](C)OC(=O)[C@H](c2ccccc2)NC(=O)[C@@H]2CC(=O)CCN2C(=O)[C@H](Cc2ccccc2)N(C)C(=O)[C@@H]2CCCN2C1=O | inactive
CC1C(=O)N(C)C(=O)c2nc[nH]c21 (stereo unspecified) | inactive

What classification did COc1cc(C(=O)O)ccc1O end up with in this test?
inactive

Which outcome was entered for the compound C[C@H](CCC(=O)NCC(=O)O)[C@H]1CC[C@H]2[C@@H]3[C@H](O)C[C@@H]4C[C@H](O)CC[C@]4(C)[C@H]3C[C@H](O)[C@]12C in this test?
inactive

// return assay outcome for CC(=O)NC(Cc1cnc[nH]1)C(=O)O (stereo unspecified)
inactive

Name the outcome recorded for COc1ccc(C(=O)OC2C[C@H]3CC[C@@H](C2)N3O)cc1OC (stereo partly specified) in the assay.
inactive

Dear all, I need the recorded test outcome for COc1ccc2c(Oc3ccc(NC(=O)c4c(C)n(CC(C)(C)O)n(-c5ccccc5)c4=O)nc3)ccnc2c1 , thank you.
inactive

----------
assay: Primary qHTS for inhibitors of nuclear receptor binding SET domain protein 2 (NSD2) in an isogenic RCH-ACV NSD2 p.E1099K mutant (9B) (AID 1645876); details: RCH-ACV (leukaemia line) NSD2 E1099K (9B) viability, CellTiter-Glo, 72 h; series mostly up to 44.9 µM; further: nearly all actives have a fitted effect of over 70% in size
Inconclusive results are not listed. Active and inactive are the calls of the source. The call rests on the fitted dose curve; in most records, active means well fitted inhibition curve with a large enough effect; inconclusive means small, poorly fitted or top-dose-only effect; inactive means flat fitted curve, though single readings scatter.
Output constraint: value belongs to active, inactive

Field: example entries. Status: answers known.
C/C(=C\c1csc(C)n1)[C@@H]1C[C@@H]2O[C@@H]2CCC[C@H](C)[C@H](O)[C@@H](C)C(=O)C(C)(C)[C@@H](O)CC(=O)O1 | active
COc1ccn(C)c(=O)c1C#N | inactive
C1=C(c2cnc[nH]2)c2ccsc2CC1 | inactive

Consider the record given below.
Kindly provide the recorded test outcome for the following molecule: COC(=O)[C@]12CCCC(C)(C)C1CCc1cc(C(C)C)c(O)c(O)c12 (stereo partly drawn)
inactive

----------
test: Validation screen for inhibitors of Lassa infection (AID 463096); conditions: Lassa virus infection, cell-based; series mostly up to 46.1 µM
Inconclusive results are not listed. Active and inactive are the calls of the source. Calls follow the shape of the full dose curve.
Pick one and only one: active, inactive

Field: example entries. Status: answers known.
COc1cc(C(O)CO)ccc1OS(=O)(=O)O (stereo not drawn) | inactive
CCCn1c(=O)c2[nH]c(-c3ccc(S(=O)(=O)O)cc3)nc2n(CCC)c1=O | inactive
CC(=O)SCC[N+](C)(C)C | inactive

Dear all, I need the recorded test outcome for COc1ccc(NC(=O)c2ccc(-c3ccc(-c4noc(C)n4)cc3C)cc2)cc1N1CCN(C)CC1 , thank you.
active

Dear all, I need the recorded test outcome for CN1CCN(c2nc3cc(C(F)(F)F)ccc3n3cccc23)CC1 , thank you.
inactive

----------
molecular target: Nucleoprotein (Lymphocytic choriomeningitis virus (strain Armstrong)); assay: qHTS for Inhibitors of the Functional Ribonucleoprotein Complex (vRNP) of Lymphocytic Choriomeningitis Arenaviruses (LCMV): LCMV Primary Screen - GLuc reporter signal (AID 1347086); details: LCMV minigenome vRNP cell assay, Gaussia luciferase reporter; series mostly up to 57.5 µM; further: nearly all actives have a fitted effect of over 70% in size
Records with an inconclusive call do not appear. Active and inactive are the calls of the source. The call rests on the fitted dose curve.
Your response should consist of one outcome taken from t (active), f (inactive)

The examples below pair each entry with its known result.
COc1cccc([C@@H](C)NCCCc2ccccc2Cl)c1 | f
CCCCC(CC)C(=O)O (stereo not given) | f
C/C=C1/CN2C3CC1C(CO)(C(=O)OC)C2Cc1c3n(C)c2ccccc12 (stereo not given) | f
C[C@@H]1CCN(C(=O)CC#N)C[C@H]1N(C)c1ncnc2[nH]ccc12 | f
CC1=CC(=O)[C@H]2C[C@@H]1C2(C)C | f
COc1ccc2cc(-c3nc(-c4ccc(S(C)=O)cc4)[nH]c3-c3ccncc3)ccc2c1 (stereo not given) | t
CNC(=O)c1ccc(C)c(-n2c(C)cc(OCc3ccc(F)cc3F)c(Br)c2=O)c1 | f
CNC(=O)Nc1ccc(-c2nc(N3CC4CCC(C3)O4)c3cnn(C4CCC5(CC4)OCCO5)c3n2)cc1 | t
C=CCn1c(=O)c2c(nc(-c3ccc(S(=O)(=O)O)cc3)n2C)n(C)c1=O | f

Hi team, can someone confirm the assay call for CC1(C)C[C@@H](O)[C@]2(C)CC[C@]3(C)C(=CCC4[C@@]5(C)CC[C@H](O)[C@](C)(CO)C5CC[C@]43C)[C@@H]2C1 (stereo not given in full) ?
f

----------
experiment: VSVG counterscreen qHTS to identify inhibitors of SARS-CoV-2 cell entry (AID 1645847); details: VSV-G pseudotyped particle entry, luciferase; series mostly up to 57.2 µM; further: potency means the concentration at half of the fitted maximal effect; nearly all actives have a fitted effect of over 65% in size
Records with an inconclusive call do not appear. Calls of active or inactive are those of the source. Calls follow the shape of the full dose curve.
Would you mind telling me the reported Potency of each entry?

Consider the worked cases shown below.
Cc1cnc(CNC(=O)c2c(=O)c3ccc(N4CCCN(C)CC4)nc3n3c2sc2ccccc23)cn1 | 3.12 µM (active)
CNC(=O)c1nn(C)c2c1C(C)(C)Cc1cnc(Nc3ccc(N4CCN(C)CC4)cc3)nc1-2 | 4.82 µM (active)
Nc1ccc(C(=O)Nc2cccc(-c3nc(N4CCOCC4)c4oc5ncccc5c4n3)c2)cn1 | 0.0048 µM (active)

Proceeding to the next compound to report its Potency.
Look up Potency: Cc1ccccc1C(=O)c1ccc(Nc2ccc(Br)cc2N)cc1Cl
24.1 µM (active)

----------
test: qHTS for Inhibitors of the Functional Ribonucleoprotein Complex (vRNP) of Lassa (LASV) Arenavirus: Viability assay - alamar blue signal for LASV Primary Screen (AID 1347083); conditions: cell viability, alamar blue fluorescence (LASV minigenome counter-screen); series mostly up to 57.5 µM; further: nearly all actives have a fitted effect of over 80% in size; further: potency means the concentration at half of the fitted maximal effect
Records with an inconclusive call do not appear. The source made the active and inactive calls. Calls come from the whole dose curve; tested in HEK293 reporter line.
outcome measure: Potency

Cn1c2c(c(=O)c3ccccc31)C[C@@H](O)C(C)(C)O2 | inactive
Cc1cc(Cn2cnc3c2C[C@@H](C(=O)O)N(C(=O)C(c2ccccc2)c2ccccc2)C3)ccc1N | inactive
COC(=O)c1cc(OC)cc(O)c1C(=O)c1c(O)cc(C)cc1O | inactive
NC(=O)c1ccc2[nH]ccc2c1 | inactive
CCN1CCC(n2cc(CNc3cc(Cl)c4ncc(C#N)c(Nc5ccc(F)c(Cl)c5)c4c3)nn2)CC1 | inactive
[3H]C([3H])([3H])C(O)(CCC[C@@H](C)C1CC[C@H]2/C(=C/C=C3/C[C@@H](O)CCC3=C)CCC[C@]12C)C([3H])([3H])[3H] (some centres not stated) | inactive

Would you mind listing Potency for each of the following molecules?
1. CSCCCN=C=S
2. N#C/C(=C\c1ccc(O)c(O)c1)C(=O)NCCc1ccccc1
3. C=C1C(=O)O[C@@H]2C[C@@H](C)[C@@H]3C=CC(=O)[C@@]3(C)[C@@H](OC(C)=O)[C@H]12
4. CCCCCCCCOS(=O)(=O)O
5. CN[C@H]1CCc2cc(OC)c(OC)c(OC)c2-c2ccc(OC)c(=O)cc21
6. CCN(CC)CCNC(=O)c1ccc2nc(-c3ccccc3)c(-c3ccc(CN4CCC(n5c(=O)[nH]c6ccccc65)CC4)cc3)nc2c1
7. Cc1c(O)ccoc1=O

["inactive", "inactive", "4.47 µM (active)", "inactive", "inactive", "21.7 µM (active)", "inactive"]
